Biological target: Human immunodeficiency virus type 1 integrase (Human immunodeficiency virus 1, UniProt Q7ZJM1)
Sequence (Q7ZJM1 whole entry): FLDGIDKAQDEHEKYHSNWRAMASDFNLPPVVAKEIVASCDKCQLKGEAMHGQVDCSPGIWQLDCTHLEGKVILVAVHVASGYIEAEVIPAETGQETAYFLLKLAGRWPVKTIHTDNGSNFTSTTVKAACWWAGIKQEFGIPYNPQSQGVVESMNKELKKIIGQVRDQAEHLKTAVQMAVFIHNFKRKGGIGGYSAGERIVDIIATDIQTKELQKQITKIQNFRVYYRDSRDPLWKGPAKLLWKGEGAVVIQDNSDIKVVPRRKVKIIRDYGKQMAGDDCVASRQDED
Assay: Inhibition of recombinant HIV1 integrase 3'-end processing activity
MEASURED_QUANTITY: IC50 (µM)
Please respond with the number in µM and leave the unit unwritten.

- SMILES_ENTRY: "COc1ccc([C@@H]2CC(=O)C[C@H](c3ccco3)C23C(=O)OC(C)(C)OC3=O)cc1OC"
  IC50 (µM): 111
- SMILES_ENTRY: "COc1cccc([C@@H]2CC(=O)C[C@H](c3ccco3)C23C(=O)OC(C)(C)OC3=O)c1OC"
  IC50 (µM): 44.8

Then there is this compound:
Data point: `COc1ccc([C@H]2CC(=O)CCC23C(=O)OC(C)(C)OC3=O)cc1` ; IC50 = 142
